# protocolText: Competitive inhibition of HSV-1 pyrimidine deoxythymidine kinase using 2-[14C]deoxythymidine as substrate
# Parameters: species or system Human alphaherpesvirus 1
Item-by-item account of Ki
// return numeric value only (unit: nM, not printed)

structure: O=c1[nH]c(=O)n([C@H]2C[C@H](O)[C@@H](CO)O2)cc1F
unitsOfMeasure: nM
experimentalResult: 1500

Give Ki for CC(=O)O[C@H]1C[C@H](n2cc(Br)c(=O)[nH]c2=O)O[C@@H]1C(N)=O
192000

Give recorded Ki. Cc1cn([C@H]2C[C@H](O)[C@@H](C(N)=O)O2)c(=O)[nH]c1=O
1600

Give Ki for O=c1[nH]c(=O)n([C@H]2C[C@H](O)[C@@H](CF)O2)cc1I
1500

Note down Ki recorded for CC(=O)O[C@H]1C[C@H](n2cc(Br)c(=O)[nH]c2=O)O[C@@H]1C#N
28000

* * *

# protocolText: Retention time of the compound by liquid chromatography
# Type: physicochemical
Doc: threshold 3 min (exclusive). Items with Retention_time beneath it return Fulfilled; others return Not fulfilled.

Record excerpt, results attached:
compound: O=C(O)[C@H]1O[C@@H](n2cc(Br)c(O)nc2=O)C[C@@H]1O
discreteLabel: Fulfilled
--
compound: Nc1ccn([C@@H]2O[C@H](C(=O)O)[C@@H](O)[C@@H]2O)c(=O)n1
discreteLabel: Fulfilled

Is 3 min strictly greater than the compound's reported Retention_time? compound: O=c1[nH]c(=O)n([C@H]2C[C@H](O)[C@@H](CO)O2)cc1F [FLOXURIDINE]
Not fulfilled

Confirm or reject: Retention_time of Nc1nc(=O)n([C@H]2C[C@H](O)[C@@H](C(=O)O)O2)cc1I lies strictly below 3 min
Not fulfilled

hey, is Retention_time for O=c1[nH]cc(Br)c(=O)[nH]1 [5-BROMOURACIL] lower than 3 min or not?
Not fulfilled

Is the reported Retention_time for Nc1ccn([C@@H]2O[C@H](CO)[C@@H](O)[C@@H]2O)c(=O)n1 [CYTARABINE] strictly below 3 min?
Fulfilled

# check: Retention_time < 3 min for O=c1[nH]cc(I)c(=O)[nH]1
Not fulfilled

Identify whether the compound O=c1[nH]c(=O)n([C@H]2C[C@H](O)[C@@H](CO)O2)cc1I [IDOXURIDINE] records Retention_time below 3 min.
Not fulfilled

Just wondering, is Retention_time of Nc1nc(=O)n([C@H]2C[C@H](O)[C@@H](CO)O2)cc1Br below 3 min?
Not fulfilled

Retention_time under 3 min? Item: Nc1nc(=O)n([C@H]2C[C@H](O)[C@@H](CO)O2)cc1I [IBACITABINE]
Not fulfilled

Consider the compound O=c1[nH]cc(F)c(=O)[nH]1 [FLUOROURACIL] . Is its Retention_time strictly less than 3 min?
Not fulfilled

Quick check: Retention_time of O=c1[nH]c(=O)n([C@H]2C[C@H](O)[C@@H](CO)O2)cc1Br [BROXURIDINE] under 3 min?
Not fulfilled

* * *

# Tested on: Enterococcus faecium
# protocolText: Antimicrobial activity against Streptococcus faecium after 15 to 17 hrs by turbidity assay
# Format: functional
# cond: read-out: ED50 (the source's name)
readoutKind: pEC50
A value of pEC50 is the negative decimal logarithm of a concentration given in moles per litre.

Before answering, review these 2 worked examples.
compound: O=c1ccn([C@H]2C[C@H](O)[C@@H](CO)O2)c(=O)[nH]1
pEC50: 4.43

compound: Nc1ccn([C@H]2C[C@H](O)[C@@H](CO)O2)c(=O)n1
pEC50: 4.30

Respond only with pEC50 recorded for NC(=O)[C@H]1O[C@@H](n2ccc(O)nc2=O)C[C@@H]1O (stereo in doubt; 19)
3.70

Read the entry Cc1cn([C@H]2C[C@H](O)[C@@H](CO)O2)c(=O)[nH]c1=O and write its reported pEC50.
4.96

* * *

# protocolText: Competitive inhibition of HSV-1 pyrimidine deoxythymidine kinase using 2-[14C]deoxythymidine as substrate
# Design: species or system Human alphaherpesvirus 1
Documented pKi across a set of compounds
Scale note: pKi = -log10(concentration in M).

structure: CC(=O)O[C@H]1C[C@H](n2cc(C)c(=O)[nH]c2=O)O[C@@H]1CO
experimentalResult: 4.24

structure: N#C[C@H]1O[C@@H](n2cc(I)c(O)nc2=O)C[C@@H]1O
experimentalResult: 5.89

structure: O=c1[nH]c(=O)n([C@H]2C[C@H](O)[C@@H](CO)O2)cc1Br
experimentalResult: 6.70

structure: N#C[C@H]1O[C@@H](n2cc(F)c(=O)[nH]c2=O)C[C@@H]1O
experimentalResult: 4.12

Alright, here's another compound for you.
Find the measured pKi of O=C(O)[C@H]1O[C@@H](n2ccc(=O)[nH]c2=O)C[C@@H]1O and report it.
3.30

Hey, just so you know, these numbers are from ChEMBL document CHEMBL3244133.
